From: patent US20090099195A1

Biological target: hP2X3 (human Purinergic P2X receptors subtype 3), clone B (Homo sapiens)
Sequence (P56373 1-397): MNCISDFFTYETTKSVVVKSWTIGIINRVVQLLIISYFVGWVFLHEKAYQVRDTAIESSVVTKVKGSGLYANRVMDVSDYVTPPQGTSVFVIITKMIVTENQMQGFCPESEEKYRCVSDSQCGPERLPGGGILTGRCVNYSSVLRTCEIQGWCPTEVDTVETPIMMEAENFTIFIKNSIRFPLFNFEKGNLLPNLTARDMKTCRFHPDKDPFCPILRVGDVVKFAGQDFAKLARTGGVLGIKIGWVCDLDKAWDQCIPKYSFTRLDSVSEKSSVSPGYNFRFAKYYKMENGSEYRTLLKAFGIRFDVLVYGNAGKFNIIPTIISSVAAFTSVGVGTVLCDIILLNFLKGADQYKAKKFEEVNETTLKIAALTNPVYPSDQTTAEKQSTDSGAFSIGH
Test: hP2X3 FLIPR calcium (Fluo-4) antagonist assay, clone B
Settings: Human P2X3 FLIPR Clone B IC50 (nM), RLE cells expressing hP2X3 clone B (NM_002559); agonist 500 nM α,β-methylene-ATP
parameter_measured: log10 of IC50 (log10 of the value in nM)

molecule | log10 of IC50
CC(C)N1Cc2c(NC(c3ccccc3)c3ccccc3)nc(NCc3cccnc3)nc2C1=O | 2.40
CC(=O)N1CCN(c2nc(NCCc3ccc(C)cc3C)c3c(n2)C(=O)N(C(C)C)C3)CC1 | 3.43
CCC(C)N1Cc2c(NCc3cnn(-c4ccccc4)c3)nc(N3CCN(C(C)=O)CC3)nc2C1=O (single isomer, unassigned; (-)) [Example 307] | 2.18
CCN(c1nc(N2CCN(C(C)=O)CC2)nc2c1CN(C(C)C)C2=O)C(C)c1ccc2ncccc2c1 (single isomer, unassigned) [Example 258] | 2.40
CC(=O)N1CCN(c2nc(NC(C)c3cnn(-c4ccccc4F)c3)c3c(n2)C(=O)N(C(C)C)C3)CC1 (stereo not shown) | 2.41
CC(C)N1Cc2c(NC(c3ccccc3)c3ccccc3)nc(NCc3ccccc3)nc2C1=O | 2.92
CCOc1cc([C@@H](C)Nc2nc(N3CCN(C(C)=O)CC3)nc3c2CN(C(C)C)C3=O)ccc1C | 2.78
